Recorded values, source ChEMBL document CHEMBL1961873.

- TEST_SYSTEM: SRSF protein kinase 1 (Homo sapiens);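 also: values are mean percent inhibition of SRPK1 kinase, measured in the GSK PKIS screening panel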
- RUN_CONDITIONS: at 0.1 µM
MEASURED_PROPERTY: inhibition (%)
Answers are plain numbers, in %.

INSERT INTO results (smiles_notation, test_system, unit_abbrev, recorded_number) VALUES
  ('Nc1nonc1-c1nc2cnccc2n1C1CCCCC1', 'SRSF protein kinase 1 (Homo sapiens)', '%', 1),
  ('NC(=O)c1sc(-n2cnc3cc(C(F)(F)F)ccc32)cc1OCc1ccccc1Br', 'SRSF protein kinase 1 (Homo sapiens)', '%', -1.98),
  ('CCn1c(-c2nonc2N)nc2c(C#CCN)ncc(OCCCN)c21', 'SRSF protein kinase 1 (Homo sapiens)', '%', 2.33),
  ('CCn1c(-c2nonc2N)nc2c(C#CC(C)(C)O)nc(O[C@@H](CN)c3ccccc3)cc21', 'SRSF protein kinase 1 (Homo sapiens)', '%', -0.59),
  ('CCn1c(-c2nonc2N)nc2c(C#CC(C)(C)O)ncc(OCC3CCNCC3)c21', 'SRSF protein kinase 1 (Homo sapiens)', '%', -0.7);

Okay, here is my list. What is inhibition for each of these?
1. CCn1c(-c2nonc2N)nc2c(C#CC(C)(C)O)ncc(OC[C@@H]3CCCN3)c21
2. COc1cccc(-n2ncc3c(N/N=C/c4ccncc4)ncnc32)c1

A)
1. -1.57
2. -1.14
